Test system: NIH3T3
Test: Cytotoxic Profiling of Annotated Libraries Using Quantitative High-Throughput Screening (AID 1296008); also: % is scaled to controls: 0 for no effect and ±100 for the full control effect; nearly all actives have a fitted effect of over 60% in size
Settings: Five cell lines viability, CellTiter-Glo ATP luminescence, 48-72 h; stronger effect = lower value
Records with an inconclusive call do not appear.
max response values, listed per item
Numbers only; they are read as %.

Reported max response, compound CN[C@H](C(=O)N[C@H](C(=O)N(C)[C@H](/C=C(\C)C(=O)O)C(C)C)C(C)(C)C)C(C)(C)c1ccccc1 : ____
-50.4

Entry under review: C=CC1(C)CC(OC(=O)/C(C)=C\COC(C)=O)C(C(=C)C(=O)O)C(O)C1C(=C)CO (stereo not given) . Reported max response?
-3.05

# max response lookup, item CC(C)S(=O)(=O)NC[C@H](C)c1ccc(NC(=O)c2cc(F)cc(F)c2)cc1
3.47

Return reported max response; argument: O=C(Nc1c(-c2cccs2)nc2ccccn12)c1ccc(Cl)cc1
-0.375

---
Record request: max response value, item CC(C)c1cccc2c(-c3ccccc3)cc(-c3ccc(-c4ccc(C(=O)O)cc4)[nH]3)nc12
-3.94

----------
Target: Calcium and integrin-binding protein 1 (Homo sapiens) (UniProt Q99828)
Sequence (Q99828 whole entry, looked up): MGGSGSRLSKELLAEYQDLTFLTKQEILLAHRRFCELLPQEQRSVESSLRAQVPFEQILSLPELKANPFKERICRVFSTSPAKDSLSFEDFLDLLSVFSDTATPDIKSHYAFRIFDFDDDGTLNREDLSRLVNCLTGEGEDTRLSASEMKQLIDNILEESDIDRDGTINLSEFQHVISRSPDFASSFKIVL
Assay: Primary qHTS for Identification of Calcium Integrin Binding Protein 1 (CIB1) Competitor (AID 1508620);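 also: GST tagged CIB1 binding a fluorescein labelled alphaIIb integrin peptide tracer; top concentration of the series differs between compounds; % is scaled to controls: 0 for no effect and ±100 for the full control effect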
Settings: CIB1-GST / FITC-alphaIIb peptide fluorescence polarization; series mostly up to 114 µM
Records with an inconclusive call do not appear. Calls of active or inactive are those of the source. The call rests on the fitted dose curve; in most records, active means well fitted inhibition curve with a large enough effect; inconclusive means small, poorly fitted or top-dose-only effect; inactive means flat fitted curve, though single readings scatter.
quantity.name: activity change, negative = inhibition

Example compounds with recorded activity change, negative = inhibition:
Record request: activity change, negative = inhibition value, item CN1CCN(c2ccc(C(=O)Nc3n[nH]c4ccc(Cc5cc(F)cc(F)c5)cc34)c(NC3CCOCC3)c2)CC1
inactive

Return reported activity change, negative = inhibition; argument: CC12CCC3c4ccc(OC5OC(C(=O)O)C(O)C(O)C5O)cc4CCC3C1CCC2O (stereo unspecified)
inactive

# input compound: CC(=O)SCC(=O)c1ccc(NS(=O)(=O)c2ccc(OCCCN(C)C)cc2)nc1 ; wanted: its activity change, negative = inhibition
inactive

Endpoint output: activity change, negative = inhibition of C[C@@H]1O[C@@H](O[C@H]2[C@H](O[C@H]3CC[C@@]4(C)C(CC[C@]5(C)C4C=C[C@]46OC[C@@]7(CCC(C)(C)C[C@H]74)[C@@H](O)C[C@]65C)[C@]3(C)CO)O[C@H](CO)[C@@H](O)[C@@H]2O[C@@H]2O[C@H](CO)[C@@H](O[C@@H]3O[C@@H](C)[C@H](O)[C@@H](O)[C@H]3O)[C@H](O)[C@H]2O)[C@H](O)[C@H](O)[C@H]1O (stereo partly specified) . Value?
inactive

Which activity change, negative = inhibition value belongs to C=C(C(=O)O)C1CCC2(C)CCC(O)C(=C)C2C1 (stereo unspecified) ?
inactive

Given the entry CCOc1cc(C)c(Cl)cc1S(=O)(=O)n1cnc2ccccc21 , report its measured activity change, negative = inhibition.
inactive

More entries:
Please look up its activity change, negative = inhibition: C/C=C/C(O)C1OC(=O)CC1Nc1ccc(C(=O)O)cc1 (stereo unspecified)
inactive

Reported activity change, negative = inhibition for CC(=O)/C=C/[C@H]1[C@](C)(O)[C@@H](O)[C@H](OC(C)=O)C2C(C)(C)CCC[C@@]21C (stereo partly specified) : what is it?
inactive
